Where do these numbers come from? They come from patent US6545182B2.

Target: alpha 2A adrenergic receptor (Homo sapiens, UniProt P08913)
Construct: expressed in transfected cells; host or cells: NIH-3T3 cells, transient cotransfection by calcium phosphate
Sequence (P08913 whole entry): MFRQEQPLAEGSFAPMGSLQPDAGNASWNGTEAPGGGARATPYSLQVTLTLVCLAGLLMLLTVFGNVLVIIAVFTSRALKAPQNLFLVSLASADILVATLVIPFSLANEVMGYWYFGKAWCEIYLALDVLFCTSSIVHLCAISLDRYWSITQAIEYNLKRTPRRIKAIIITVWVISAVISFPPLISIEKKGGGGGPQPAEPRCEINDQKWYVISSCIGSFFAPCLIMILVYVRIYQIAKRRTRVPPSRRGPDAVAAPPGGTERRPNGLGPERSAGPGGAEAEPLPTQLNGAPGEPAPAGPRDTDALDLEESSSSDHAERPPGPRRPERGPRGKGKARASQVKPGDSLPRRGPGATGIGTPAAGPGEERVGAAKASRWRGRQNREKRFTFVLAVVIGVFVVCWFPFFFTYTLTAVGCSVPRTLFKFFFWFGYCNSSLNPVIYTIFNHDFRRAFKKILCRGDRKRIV
Experiment: RSAT (Receptor Selection and Amplification Technology) assay, alpha 2A
Format: cell-based
Details: NIH-3T3 cells cotransfected with receptor and Gq/i5
Experimental: Activity was measured using the RSAT (Receptor Selection and Amplification Technology) assay, developed by Receptor Technologies, Inc. of Winooski, Vt. […] The increase in cell number is assessed with an appropriate transfected marker gene such as β-galactosidase, the activity of which can be easily measured in a 96-well format. […] The assay is conducted as follows. […] The EC50 and maximal effect of each drug at each alpha2 receptor is determined. […]
measure: EC50

Give EC50 for the following compound: OCCNC(=S)NCc1cc(F)ccc1F
≥ 210000 nM
